species on record: Rattus norvegicus; assay: Selectivity index, ratio of IC50 for rat kidney ALR1 to IC50 for rat lenses ALR2
# reported Ratio IC50; entries follow
measured_metric: Ratio IC50

# molecule, measured_metric, obs_value
records = [
    ("O=C(NCc1ncc(-c2ccc(F)cc2)[nH]1)C1=Cc2ccccc2OC1", "Ratio IC50", 4.38),
    ("COc1ccc(-c2cnc(CNC(=O)C3=Cc4cccc(OC)c4OC3)[nH]2)cc1", "Ratio IC50", 1.45),
    ("COc1cccc2c1OCC(C(=O)N[C@H](c1ncc(-c3ccc(Br)cc3)[nH]1)C(C)C)=C2", "Ratio IC50", 4.42),
    ("COc1cccc2c1OCC(C(=O)NCc1ncc(-c3ccc(Cl)cc3)[nH]1)=C2", "Ratio IC50", 22.2),
    ("O=C(NCc1ncc(-c2ccccc2)[nH]1)C1=Cc2ccccc2OC1", "Ratio IC50", 2.48),
    ("O=C(C1=Cc2ccccc2OC1)N1CCC[C@H]1c1ncc(-c2ccc(Cl)cc2)[nH]1", "Ratio IC50", 11.5),
    ("COc1cccc2c1OCC(C(=O)NCc1ncc(-c3ccc(F)cc3)[nH]1)=C2", "Ratio IC50", 22.8),
    ("O=C(NCc1ncc(-c2ccc(Br)cc2)[nH]1)C1=Cc2ccccc2OC1", "Ratio IC50", 4.61),
    ("O=C(C1=Cc2ccccc2OC1)N1CCC[C@H]1c1ncc(-c2ccccc2)[nH]1", "Ratio IC50", 1.55),
    ("COc1ccc(-c2cnc(CNC(=O)C3=Cc4ccccc4OC3)[nH]2)cc1", "Ratio IC50", 9.22),
    ("COc1cccc2c1OCC(C(=O)NCc1ncc(-c3ccccc3)[nH]1)=C2", "Ratio IC50", 1.66),
    ("COc1cccc2c1OCC(C(=O)N1CCC[C@H]1c1ncc(-c3ccc(Cl)cc3)[nH]1)=C2", "Ratio IC50", 110),
    ("COc1cccc2c1OCC(C(=O)NCc1ncc(-c3ccc(Br)cc3)[nH]1)=C2", "Ratio IC50", 17.1),
    ("CC(C)[C@H](NC(=O)C1=Cc2ccccc2OC1)c1ncc(-c2ccccc2)[nH]1", "Ratio IC50", 2.19),
    ("COc1cccc2c1OCC(C(=O)N1CCC[C@H]1c1ncc(-c3ccccc3)[nH]1)=C2", "Ratio IC50", 0.596),
    ("O=C(C1=Cc2ccccc2OC1)N1CCC[C@H]1c1ncc(-c2cccnc2)[nH]1", "Ratio IC50", 10.9),
    ("CC(C)[C@H](NC(=O)C1=Cc2ccccc2OC1)c1ncc(-c2ccc(Br)cc2)[nH]1", "Ratio IC50", 10.3),
    ("O=C(NCc1ncc(-c2ccc(Cl)cc2)[nH]1)C1=Cc2ccccc2OC1", "Ratio IC50", 21.2),
    ("COc1cccc2c1OCC(C(=O)N[C@H](c1ncc(-c3ccccc3)[nH]1)C(C)C)=C2", "Ratio IC50", 4.87),
    ("COc1cccc2c1OCC(C(=O)N1CCC[C@H]1c1ncc(-c3cccnc3)[nH]1)=C2", "Ratio IC50", 9.71),
]

###

System: Aldo-keto reductase family 1 member B1 (Rattus norvegicus) | Read-out: log10 IC50
measured_metric: log10 IC50 (log10 of the value in µM)

# molecule, log10 IC50
measured = [
    ("O=C(C1=Cc2ccccc2OC1)N1CCC[C@H]1c1ncc(-c2cccnc2)[nH]1", -0.65),
    ("COc1cccc2c1OCC(C(=O)NCc1ncc(-c3ccc(F)cc3)[nH]1)=C2", -1.15),
    ("COc1cccc2c1OCC(C(=O)N[C@H](c1ncc(-c3ccccc3)[nH]1)C(C)C)=C2", 0.00),
    ("CC(C)[C@H](NC(=O)C1=Cc2ccccc2OC1)c1ncc(-c2ccccc2)[nH]1", 0.63),
    ("O=C(C1=Cc2ccccc2OC1)N1CCC[C@H]1c1ncc(-c2ccccc2)[nH]1", 0.56),
]
